Tested on: NCI-H1944
test: normalised cell viability (NPI; 0 = phenylarsine oxide control, 1 = DMSO control) (fraction of DMSO control); higher = more viable cells (less compound toxicity)
study-conditions: glucocorticoid arm: hydrocortisone 2.75 uM co-treatment; compound 1 µM; 6 days
Structures can show the parent of a compound that is named as a salt. In all, about 1,900 compounds were measured (“normalised cell viability (NPI; 0 = phenylarsine oxide control, 1 = DMSO control)”: median about 1, lowest 2% from about 0.039 on). Only a selection was taken, and the lowest values are over-represented in it overall.
metric: normalised cell viability
The reply should be a number, written without any unit.

1) OC(CN1CCC(Cc2ccc(F)cc2)CC1)c1ccc(Cl)cc1 (stereo unspecified)    0.949

**Query** I would be grateful if you could share the reported normalised cell viability for CCOC(=O)[C@]12CC1/C(=N\O)c1ccccc1O2 (stereo partly specified) .
**Result** 1.02

**Query** I would be grateful if you could share the reported normalised cell viability for NC1(C(=O)O)CCCCC1 [1-Amino-1-cyclohexanecarboxylic acid hydrochloride] .
**Result** 0.998

**Query** I would be grateful if you could share the reported normalised cell viability for CC[C@]1(O)C[C@@H]2CN(CCc3c([nH]c4ccccc34)[C@@](C(=O)OC)(c3cc4c(cc3OC)N(C)[C@H]3[C@@](O)(C(=O)OC)[C@H](OC(C)=O)[C@]5(CC)C=CCN6CC[C@]43[C@@H]65)C2)C1 [Vinblastine sulfate salt; Vinblastine sulfate] .
**Result** 0.354

**Query** I would be grateful if you could share the reported normalised cell viability for CCCC(CCC)C(=O)NO [Valproic acid hydroxamate] .
**Result** 1

**Query** I would be grateful if you could share the reported normalised cell viability for O=C(CCCN1CCC(O)(c2ccc(Cl)cc2)CC1)c1ccc(F)cc1 .
**Result** 0.996

**Query** I would be grateful if you could share the reported normalised cell viability for NC(=S)c1ccc[n+]([C@@H]2O[C@@H](COP(=O)([O-])OP(=O)(O)OC[C@H]3O[C@@H](n4cnc5c(N)ncnc54)C(OP(=O)(O)O)[C@H]3O)C(O)C2O)c1 (stereo partly specified) [Thio-NADP sodium] .
**Result** 1.01

###

System: NCI-H1944
test: normalised cell viability (NPI; 0 = phenylarsine oxide control, 1 = DMSO control) (fraction of DMSO control); higher = more viable cells (less compound toxicity)
study-conditions: glucocorticoid arm: vehicle; compound 1 µM; 6 days
Counter-ions that a name gives are not always drawn. In all, about 1,900 compounds were measured (“normalised cell viability (NPI; 0 = phenylarsine oxide control, 1 = DMSO control)”: median about 1, lowest 2% from about 0.039 on). This is one part of a sample in which the lowest values are shown more often than they occur.
# Lookup of reported normalised cell viability keyed by entry
The reply should be a number, written without any unit.

**Query** I would be grateful if you could share the reported normalised cell viability for CC(C)c1cc(-c2ccc(F)c3ccccc23)nc(N)n1 .
**Result** 0.984

**Query** I would be grateful if you could share the reported normalised cell viability for COc1ncc(-c2ccc3nccc(-c4ccnnc4)c3c2)cc1NS(=O)(=O)c1ccc(F)cc1F .
**Result** 0.0495

**Query** I would be grateful if you could share the reported normalised cell viability for O=C(Cc1ccc(-c2ccc(OCCN3CCOCC3)cc2)cn1)NCc1ccccc1 .
**Result** 0.0379

**Query** I would be grateful if you could share the reported normalised cell viability for NCCCCC(=O)O [5-Aminovaleric acid hydrochloride] .
**Result** 0.992

**Query** I would be grateful if you could share the reported normalised cell viability for Cc1ccccc1/C=C/C1=NCCN1 [Metrazoline oxalate] .
**Result** 0.995

**Query** I would be grateful if you could share the reported normalised cell viability for COc1c/c(=C2\C=c3ccccc3=N2)[nH]/c1=C\c1[nH]c(C)cc1C [Obatoclax mesylate (GX15-070)] .
**Result** 0.564

**Query** I would be grateful if you could share the reported normalised cell viability for COc1cc(C(=O)NC2CCN(C)CC2)ccc1Nc1ncc2c(n1)N(C1CCCC1)CC(F)(F)C(=O)N2C .
**Result** 0.066

**Query** I would be grateful if you could share the reported normalised cell viability for CN(C)CCSSCCNC(=O)C1CCN(C(=O)CSc2ccc(Cl)cc2)CC1 .
**Result** 0.997

**Query** I would be grateful if you could share the reported normalised cell viability for NC(Cc1cccc(-c2ccccc2CP(=O)(O)O)c1)C(=O)O (stereo not drawn) [Phenylbenzene-omega-phosphono-alpha-amino acid] .
**Result** 1.02

**Query** I would be grateful if you could share the reported normalised cell viability for OCC1OC(n2cnc3c(NCCc4ccccc4)ncnc32)C(O)C1O (stereo unspecified) [N6-2-Phenylethyladenosine] .
**Result** 0.993

**Query** I would be grateful if you could share the reported normalised cell viability for Cn1ccc2cc3c(cc21)CCN3C(=O)Nc1cccnc1 .
**Result** 1.03

**Query** I would be grateful if you could share the reported normalised cell viability for CNc1nc(Nc2cnn(C3CCN(C4COC4)CC3F)c2Cl)ncc1C(F)(F)F (stereo unspecified) .
**Result** 1.01

**Query** I would be grateful if you could share the reported normalised cell viability for Cc1cc(C)c(/C=C2\C(=O)Nc3ccccc32)[nH]1 [Semaxanib (SU5416)] .
**Result** 1.02

**Query** I would be grateful if you could share the reported normalised cell viability for NCC=CC(=O)O (stereo in doubt) [cis-4-Aminocrotonic acid] .
**Result** 0.973

**Query** I would be grateful if you could share the reported normalised cell viability for O=[N+]([O-])c1ccc(-c2nc(-c3ccc(F)cc3)c(-c3ccncc3)[nH]2)cc1 .
**Result** 0.996

**Query** I would be grateful if you could share the reported normalised cell viability for CCCS(=O)(=O)Nc1ccc(F)c(C(=O)c2c[nH]c3ncc(-c4ccc(Cl)cc4)cc23)c1F [Vemurafenib (PLX4032)] .
**Result** 1.02

**Query** I would be grateful if you could share the reported normalised cell viability for O=Nc1c(-c2c(O)[nH]c3cc(Br)ccc23)[nH]c2ccccc12 .
**Result** 1.04

###

Tested on: NCI-H1944
test: normalised cell viability (NPI; 0 = phenylarsine oxide control, 1 = DMSO control) (fraction of DMSO control); higher = more viable cells (less compound toxicity)
study-conditions: glucocorticoid arm: hydrocortisone 2.75 uM co-treatment; compound 5 µM; 6 days
Where a name gives a salt, the structure may show the parent alone. Over roughly 1,900 compounds, “normalised cell viability (NPI; 0 = phenylarsine oxide control, 1 = DMSO control)” has its median near 1; the lowest 2% begin near 0.039. Many of the other results were omitted from the sample, so the lowest values are more common in it than they were.
# Lookup of reported normalised cell viability keyed by entry
The reply should be a number, written without any unit.

1) O=C(c1ccc(Cl)cc1)N1CCN(c2ccc([N+](=O)[O-])c3ncccc23)CC1    1.01

**Query** Give recorded normalised cell viability with NCI-H1944 for the following molecule: NC1CCN(O)C1=O (racemic)
**Result** 0.999

**Query** Give recorded normalised cell viability with NCI-H1944 for the following molecule: Ic1ccc(N2CCN(Cc3c[nH]c4ncccc34)CC2)cc1 [L-750,667 trihydrochloride]
**Result** 0.883

###

# Lookup of reported normalised cell viability keyed by entry
System: NCI-H1944
test: normalised cell viability (NPI; 0 = phenylarsine oxide control, 1 = DMSO control) (fraction of DMSO control); higher = more viable cells (less compound toxicity)
study-conditions: glucocorticoid arm: hydrocortisone 2.75 uM pre-treated 2 days and continued; compound 5 µM; 6 days
Over roughly 1,900 compounds, “normalised cell viability (NPI; 0 = phenylarsine oxide control, 1 = DMSO control)” has its median near 1; the lowest 2% begin near 0.039. Only a selection was taken, and the lowest values are over-represented in it overall.

Below: 5 molecules and their reported normalised cell viability.
1. O=C(NCc1cccc(O)c1)Nc1nc(-c2ccncc2)cs1    0.971
2. COc1ccc(CCNC[C@@H](O)c2ccc(O)cc2)cc1OC [R(-)-Denopamine]    1.01
3. N#C[C@@H]1CCCN1C(=O)CNC12CC3CC(CC(O)(C3)C1)C2 [Vildagliptin (LAF-237)]    1
4. COc1cc2c(cc1OC)[C@@H](c1ccccc1)CN(C)CC2    1.01
5. CN1CCc2c(c3ccccc3n2Cc2ccc(C(=O)NO)cc2)C1 [Tubastatin A]    1.01

Moving on to another molecule below.
**Query** Give recorded normalised cell viability with NCI-H1944 for the following molecule: C#Cc1ccc2c(c1)C(=O)N(C)Cc1c(C(=O)OCCCOC(=O)c3ncn4c3CN(C)C(=O)c3cc(C#C)ccc3-4)ncn1-2 [Xli 093 hydrate]
**Result** 1.01

###

# Lookup of reported normalised cell viability keyed by entry
System: NCI-H1944;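 note: CTB read-out in 384-well plates, triplicate wells, NPI normalised per plate against 1 µM phenylarsine oxide (0) and 0.1% DMSO (1) controls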
test: normalised cell viability (NPI; 0 = phenylarsine oxide control, 1 = DMSO control) (fraction of DMSO control); NCI-H1944 is a non-small cell lung cancer line; higher = more viable cells (less compound toxicity)
study-conditions: glucocorticoid arm: hydrocortisone 2.75 uM pre-treated 2 days and continued; compound 1 µM; 6 days
The full ranking holds about 1,900 compounds; the median of “normalised cell viability (NPI; 0 = phenylarsine oxide control, 1 = DMSO control)” is about 1, and the lowest 2% start at about 0.039. The entries come from a sample that favours the lowest values as a whole.
The reply should be a number, written without any unit.

1) CC(=O)O[C@@]12CO[C@@H]1C[C@H](O)[C@@]1(C)C(=O)[C@H](O)C3=C(C)[C@@H](OC(=O)[C@H](O)[C@@H](NC(=O)OC(C)(C)C)c4ccccc4)C[C@@](O)([C@@H](OC(=O)c4ccccc4)[C@H]21)C3(C)C    0.462

**Query** I would be grateful if you could share the reported normalised cell viability for CCCCOc1cc(CC2CNC(=O)N2)ccc1OC (configuration not stated) .
**Result** 1.01

**Query** I would be grateful if you could share the reported normalised cell viability for NC[C@@H]1O[C@H](C23CC4CC(CC(C4)C2)C3)Cc2c1ccc(O)c2O .
**Result** 1.01
